Parameter melting point: see the listing below.

// known answers, use as guide
[[record]]
compound = "COc1cc(/C=C/C(=O)CC(=O)c2ccc(Cl)c(C)c2)ccc1O [Compound 95]"
reading = "68 to 70 °C"

[[record]]
compound = "COc1cc(/C=C/C(=O)CC(=O)c2ccccc2C)ccc1O [Compound 103]"
reading = "96 °C"

[[record]]
compound = "COc1cc(/C=C/C(=O)CC(=O)c2ccccc2)ccc1O [Compound 68]"
reading = "159 to 161.5 °C"

[[record]]
compound = "COc1cc(/C=C/C(=O)CC(=O)CC(C)(C)C)ccc1O [Compound 35]"
reading = "130 to 132 °C"

[[record]]
compound = "CCOc1cc(/C=C/C(=O)CC(=O)c2ccccc2)ccc1O [Compound 106]"
reading = "110 to 112 °C"


Would you kindly look at the next entry?
Find the measured melting point of COC(=O)c1ccc(C(=O)CC(=O)/C=C/c2ccc(O)c(OC)c2)cc1 [Compound 57] and report it. 187 to 189 °C

====

Biological target: TRPV1 receptor (Rattus norvegicus)
Sequence (O35433 whole entry): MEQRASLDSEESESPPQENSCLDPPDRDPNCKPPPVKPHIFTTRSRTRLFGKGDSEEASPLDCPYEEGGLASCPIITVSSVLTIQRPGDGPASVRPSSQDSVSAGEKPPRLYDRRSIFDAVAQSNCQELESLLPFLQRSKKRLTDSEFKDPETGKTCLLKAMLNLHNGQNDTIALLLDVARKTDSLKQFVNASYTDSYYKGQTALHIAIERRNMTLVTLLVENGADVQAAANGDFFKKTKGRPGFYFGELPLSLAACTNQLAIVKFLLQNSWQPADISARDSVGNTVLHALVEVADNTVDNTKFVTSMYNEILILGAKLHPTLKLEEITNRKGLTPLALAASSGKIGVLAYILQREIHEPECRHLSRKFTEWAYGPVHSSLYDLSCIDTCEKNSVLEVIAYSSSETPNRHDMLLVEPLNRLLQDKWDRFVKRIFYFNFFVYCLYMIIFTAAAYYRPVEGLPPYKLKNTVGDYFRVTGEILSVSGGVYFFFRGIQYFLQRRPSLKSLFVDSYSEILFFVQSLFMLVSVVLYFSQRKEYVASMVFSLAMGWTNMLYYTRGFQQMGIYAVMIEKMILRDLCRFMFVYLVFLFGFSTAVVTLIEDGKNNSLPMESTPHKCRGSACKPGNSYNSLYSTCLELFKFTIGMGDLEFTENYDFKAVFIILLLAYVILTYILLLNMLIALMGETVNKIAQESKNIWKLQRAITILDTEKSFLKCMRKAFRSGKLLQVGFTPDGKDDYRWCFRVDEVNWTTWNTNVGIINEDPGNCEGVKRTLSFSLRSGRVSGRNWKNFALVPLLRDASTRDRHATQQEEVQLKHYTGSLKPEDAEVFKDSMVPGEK
Experiment: TRPV1 modulation in DRG neurones: CGRP release in absence and presence of capsaicin (Assay 2)
Assay type: cell-based
Set-up: The culture used for this experiment contained sensory neurones, Schwann cells and fibroblasts; endogenous in cells; host or cells: primary rat DRG sensory neurone culture (with Schwann cells and fibroblasts)
Conditions: 20 min; test compound alone 30 μM, rat DRG sensory neurones, 20 min; read-out: CGRP release (% of capsaicin (1 μM) response)
Label scheme for Emax at 30 µM: lower than 70% is false (0), 70% and above is true (1).

[[record]]
compound = "COc1cc(CCC(=O)C(C)C(=O)C2(C)CC2)ccc1O (stereo not drawn) [Compound 7]"
classlabel = "true (1)"

[[record]]
compound = "COc1cc(CCC(=O)C(C)(C)C(=O)C(C)(C)C)ccc1O [Compound 71]"
classlabel = "false (0)"

[[record]]
compound = "COc1cc(CCC(=O)C(C)C(=O)C(C)(C)C)ccc1O (stereo not drawn) [Compound 4]"
classlabel = "false (0)"


Has COc1cc(CCC(=O)CC(=O)Cc2cccc3ccccc23)ccc1O [Compound 29] a recorded Emax at 30 µM greater than or equal to 70%? true (1)

Check if Emax at 30 µM >= 70% (inclusive). Item: CCC(C(=O)CCc1ccc(O)c(OC)c1)C(=O)c1ccccc1 (stereo not drawn) [Compound 12] true (1)

Is Emax at 30 µM for COc1cc(CCC(=O)C(C)C(=O)c2ccc(O)c(OC)c2)ccc1O (stereo not drawn) [Compound 16] at or above 70%? false (0)

Determine whether measured Emax at 30 µM meets or exceeds 70% for COc1cc(CCC(=O)CC(=O)c2ccccc2)ccc1O [Compound 69] false (0)

Determine whether measured Emax at 30 µM meets or exceeds 70% for COc1cc(CCC(=O)C(C)C(=O)c2ccc(C)cc2)ccc1O (stereo not drawn) [Compound 14] true (1)

Check if Emax at 30 µM >= 70% (inclusive). Item: COc1cc(CCC(=O)CC(=O)c2cccc(Cl)c2)ccc1O [Compound 22] true (1)

Say whether COC(=O)c1ccc(C(=O)CC(=O)CCc2ccc(O)c(OC)c2)cc1 [Compound 25] shows Emax at 30 µM of 70% or more. false (0)

Does COc1cc(CCC(=O)CC(=O)c2ccc(O)c(OC)c2)ccc1O [Compound 15] have a reported Emax at 30 µM of at least 70%? false (0)

// inclusive: Emax at 30 µM at least 70%? input: COc1cc(CCC(=O)CC(=O)Cc2ccccc2)ccc1O [Compound 28] true (1)

Is the recorded value of Emax at 30 µM equal to or greater than 70% for this compound? COc1cc(CCC(=O)CC(=O)c2ccccc2-c2ccccc2)ccc1O [Compound 19] true (1)

Check the entry COc1cc(CCC(=O)CC(=O)c2cccc3ccccc23)ccc1O [Compound 27] : does Emax at 30 µM equal or exceed 70%? true (1)

====

Entries and their measured inhibition at 3 µM follow.
Biological target: 5-lipoxygenase (Homo sapiens)
Construct: endogenous in cells; host or cells: human peripheral blood mononuclear leukocytes (PBMLs)
Sequence (P09917 whole entry): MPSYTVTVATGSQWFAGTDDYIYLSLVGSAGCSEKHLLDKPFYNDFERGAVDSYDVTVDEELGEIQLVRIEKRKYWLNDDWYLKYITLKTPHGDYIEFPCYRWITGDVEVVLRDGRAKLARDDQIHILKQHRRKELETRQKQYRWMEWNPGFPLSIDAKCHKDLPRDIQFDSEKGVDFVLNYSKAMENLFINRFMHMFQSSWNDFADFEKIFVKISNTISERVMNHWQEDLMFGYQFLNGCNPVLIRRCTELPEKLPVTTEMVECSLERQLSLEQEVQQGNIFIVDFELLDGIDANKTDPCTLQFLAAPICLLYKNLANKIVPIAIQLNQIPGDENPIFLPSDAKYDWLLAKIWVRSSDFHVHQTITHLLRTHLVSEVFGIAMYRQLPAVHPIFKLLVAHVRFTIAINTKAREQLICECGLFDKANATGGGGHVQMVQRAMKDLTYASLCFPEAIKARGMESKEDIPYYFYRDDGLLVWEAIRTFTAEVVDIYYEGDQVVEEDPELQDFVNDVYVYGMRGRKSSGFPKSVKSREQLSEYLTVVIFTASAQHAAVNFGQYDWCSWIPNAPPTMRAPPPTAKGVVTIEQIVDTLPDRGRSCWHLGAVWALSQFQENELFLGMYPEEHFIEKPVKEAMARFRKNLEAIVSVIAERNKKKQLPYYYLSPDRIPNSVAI
Test: 5-lipoxygenase activity (LTB4) in human peripheral blood mononuclear leukocytes (Assay 6)
Format: cell-based
Conditions: 3 μM, human PBMLs, A23187 30 μM, read-out: Inhibition of 5-LO (%)
Please reply with the bare figure in % and do not write the unit itself.

[[record]]
compound = "COc1cc(CCC(=O)CC(=O)c2ccc(F)cc2)ccc1O [Compound 20]"
reading = 58


Provide one value: measured inhibition at 3 µM of COc1cc(CCC(=O)C(C)C(=O)C(C)(C)C)ccc1O (centres unmarked) [Compound 4] 15

Specify inhibition at 3 µM for COc1cc(CCC(=O)CC(=O)c2ccc3ccccc3c2)c(Cl)cc1O [Compound 86] and stop. 52

Recall and state the measured inhibition at 3 µM for COc1cc(CCC(=O)CC(=O)c2ccc(C#N)cc2)ccc1O [Compound 82] . 48

// Input: COc1cc(CCC(=O)C(C)(C)C(=O)c2ccccc2)ccc1O [Compound 32] . Output its inhibition at 3 µM only. 45

Retrieve inhibition at 3 µM measured for COc1cc(CCC(=O)CC(=O)c2cccc3ccccc23)ccc1O [Compound 27] and print it. 92

Item COc1ccc(C(=O)C(C)C(=O)CCc2ccc(O)c(OC)c2)cc1 (centres unmarked) [Compound 17] : provide inhibition at 3 µM 51

Note inhibition at 3 µM for the compound shown: COc1cc(CCC(=O)CC(=O)c2ccccc2)ccc1O [Compound 69] 89

====

Item-by-item account of Inhibition of α-SMA mRNA synthesis (%)
System: α-smooth muscle actin (α-SMA) mRNA
Assay: Anti-remodelling activity in human lung fibroblasts (HFL1): TGFβ-induced α-SMA mRNA (Assay 4)
Type: cell-based
Conditions: 30 μM; HFL1 cells, TGFβ 10 ng/ml, 24 h
Report the value in % with no unit label.

[[record]]
compound = "CCC(=O)CC(=O)CCc1ccc(O)c(OC)c1 [3-gingerdione, reference compound]"
reading = 24

[[record]]
compound = "COc1cc(CCC(=O)CC(=O)c2ccc(Cl)c(Cl)c2)ccc1O [Compound 23]"
reading = 79

[[record]]
compound = "COc1cc(CCC(=O)CC(=O)c2ccc(Cl)cc2Cl)ccc1O [Compound 24]"
reading = 80


With those in mind, consider the next compound.
Entry COc1cc(CCC(=O)CC(=O)C(C)C)ccc1O [Compound 1] needs its Inhibition of α-SMA mRNA synthesis (%) filled in; supply it. 34

====

System: α-smooth muscle actin (α-SMA) mRNA
Experiment: Anti-remodelling activity in human lung fibroblasts (HFL1): TGFβ-induced α-SMA mRNA (Assay 4)
Format: cell-based
Settings: Homo sapiens; 3 μM; HFL1 cells, TGFβ 10 ng/ml, 24 h; read-out: Inhibition of α-SMA mRNA synthesis (%)
The following molecules are shown together with reported inhibition at 3 µM values.
The figure you give is taken to be in %; do not add the unit.

[[record]]
molecule = "COc1cc(CCC(=O)C(C)C(=O)c2ccc(C)cc2)ccc1O (stereo not drawn)"
measureunit = "%"
reading = 11

[[record]]
molecule = "COc1cc(CCC(=O)CC(=O)c2ccccc2)ccc1O"
measureunit = "%"
reading = 10

[[record]]
molecule = "COc1ccc(C(=O)C(C)C(=O)CCc2ccc(O)c(OC)c2)cc1 (stereo not drawn)"
measureunit = "%"
reading = -1


Input COc1cc(CCC(=O)C(C)(C)C(=O)c2ccccc2)ccc1O , output reported inhibition at 3 µM. 13

Check the records and state inhibition at 3 µM for COc1cc(CCC(=O)CC(=O)c2ccc3ccccc3c2)ccc1O 2

Entry COc1cc(CCC(=O)CC(=O)Cc2ccccc2)ccc1O needs its inhibition at 3 µM filled in; supply it. 12

Quickly give me recorded inhibition at 3 µM for COc1cc(CCC(=O)CC(=O)c2cccc(Cl)c2)ccc1O -5

Supply inhibition at 3 µM value. Item: COc1cc(CCC(=O)C(Cc2ccccc2)C(=O)c2ccccc2)ccc1O (stereo not drawn) 14

Look up and report measured inhibition at 3 µM for this entry: COc1cc(CCC(=O)C(C)(C)C(=O)c2ccc(C)cc2)ccc1O -2

====

Tested on: ovalbumin-sensitised mice
Test: Ovalbumin-sensitised mice, a chronic model of asthma in vivo (Assay 8)
Conditions: mean ± s.e.mean; BAL fluid day 55; oral gavage 20 days: 2 3 mg/kg/day, 32 30 mg/kg/day, budesonide 1 mg/kg/day, montelukast 10 mg/kg/day; sensitised 241.9 ± 89.3
Protocol: Mice (BALB/c from Harlan-Olac) were sensitised to ovalbumin using two interperitoneal injections of ovalbumin (10 μg) and alum (200 μl) on day 1 and 14 followed by a 20 min, daily exposure to a ovalbumin aerosol (5%) on days 19-23 and then a thrice weekly 20 min, exposure to a ovalbumin aerosol (5%) on days 24-55. […]
propertyMeasured: IL-13 concentration

[[record]]
compound = "CCCC1O[C@@H]2C[C@H]3[C@@H]4CCC5=CC(=O)C=C[C@]5(C)[C@H]4[C@@H](O)C[C@]3(C)[C@]2(C(=O)CO)O1 (stereo partly shown) [budesonide, reference compound]"
propertymeasured = "IL-13 concentration"
reading = "199.3 ± 110.1% of control"

[[record]]
compound = "COc1cc(CCC(=O)CC(=O)C(C)(C)C)ccc1O"
propertymeasured = "IL-13 concentration"
reading = "183.0 ± 60.9% of control"

[[record]]
compound = "CC(C)(O)c1ccccc1CC[C@@H](SCC1(CC(=O)O)CC1)c1cccc(/C=C/c2ccc3ccc(Cl)cc3n2)c1 [montelukast, reference compound]"
propertymeasured = "IL-13 concentration"
reading = "73.2 ± 55.3% of control"


We next turn to a different compound, shown below.
Please list IL-13 concentration recorded for the compound COc1cc(CCC(=O)C(C)(C)C(=O)c2ccccc2)ccc1O 148.7 ± 88.4% of control
